Sourced from ChEMBL document CHEMBL4251634

- System: Aspergillus niger
- procedure.details: Fungicidal activity against Aspergillus niger incubated for 48 hrs followed by regrowth on PDA plates for 48 hrs
- Format: functional
The following compounds are shown together with reported MFC values.
# number then unit; no other words

Worked cases, MFC given:
{"input.smiles": "Cc1cc(SCc2nnc(-c3ccc(Cl)cc3)s2)nc(SCc2nnc(-c3ccc(Cl)cc3)s2)n1", "MFC": "50 µg"}
{"input.smiles": "Cc1cc(SCc2nnc(-c3ccc(Cl)cc3)n2N)nc(SCc2nnc(-c3ccc(Cl)cc3)n2N)n1", "MFC": "12.5 µg"}
{"input.smiles": "Cc1cc(SCc2nnc(-c3ccc([N+](=O)[O-])cc3)n2N)nc(SCc2nnc(-c3ccc([N+](=O)[O-])cc3)n2N)n1", "MFC": "12.5 µg"}

So what's the measured MFC for this one? Cc1cc(SCc2nnc(-c3ccc([N+](=O)[O-])cc3)s2)nc(SCc2nnc(-c3ccc([N+](=O)[O-])cc3)s2)n1
50 µg
